# Test system: CP262
# experiment description: qHTS profiling for inhibitors of Plasmodium falciparum proliferation (AID 504749); also: nearly all actives have a fitted effect of over 60% in size
# condition summary: P. falciparum in erythrocytes, SYBR Green DNA, 72 h; series mostly up to 28.7 µM
# Procedure: NIH National Institute of Allergy and Infectious Diseases [NIAID] NIH Chemical Genomics Center [NCGC] […] Because mature erythrocytes lack DNA, only Plasmodium-derived DNA is detected. NCGC Assay Protocol Summary: The SYBR Green viability assay was adapted from a method described previously (Plouffe et al., 2008). […] The following morning, fluorescence intensity at 485(14) nm excitation and 535(25) nm emission wavelengths was measured on an EnVision (Perkin Elmer) plate reader. […]
Results filed as inconclusive are left out. The source made the active and inactive calls. Calls follow the shape of the dose curve; as a rule, active = well fitted inhibition curve with a large enough effect; inconclusive = small, poorly fitted or top-dose-only effect; inactive = flat fitted curve, though single readings scatter.
Outcomes: active, inactive

[[record]]
molecule = "O=C1CCc2ccc(OCCCCN3CCN(c4cccc(Cl)c4Cl)CC3)cc2N1"
target_desc = "CP262"
discrete_label = "inactive"

[[record]]
molecule = "CN1CCC(=C2c3ccccc3CCc3sccc32)CC1"
target_desc = "CP262"
discrete_label = "inactive"

[[record]]
molecule = "COCCCOc1ccnc(CS(=O)c2nc3ccccc3[nH]2)c1C (stereo unspecified)"
target_desc = "CP262"
discrete_label = "inactive"

[[record]]
molecule = "Cc1c(C(=O)NN2CCCCC2)nn(-c2ccc(Cl)cc2Cl)c1-c1ccc(Cl)cc1"
target_desc = "CP262"
discrete_label = "inactive"

[[record]]
molecule = "CC1(C)NC(=O)N(c2ccc([N+](=O)[O-])c(C(F)(F)F)c2)C1=O"
target_desc = "CP262"
discrete_label = "inactive"

[[record]]
molecule = "O=C(O)c1cccc(-c2noc(-c3ccccc3F)n2)c1"
target_desc = "CP262"
discrete_label = "inactive"

[[record]]
molecule = "NNc1nncc2ccccc12"
target_desc = "CP262"
discrete_label = "inactive"

[[record]]
molecule = "CCCCc1ccc2nc(NC(=O)OC)[nH]c2c1"
target_desc = "CP262"
discrete_label = "inactive"

[[record]]
molecule = "CCCc1cc(=O)[nH]c(=S)[nH]1"
target_desc = "CP262"
discrete_label = "inactive"

[[record]]
molecule = "CN(C)C(=O)COC(=O)Cc1ccc(OC(=O)c2ccc(N=C(N)N)cc2)cc1"
target_desc = "CP262"
discrete_label = "inactive"

[[record]]
molecule = "Clc1ccc(C(Cn2ccnc2)OCc2ccsc2Cl)c(Cl)c1 (stereo unspecified)"
target_desc = "CP262"
discrete_label = "active"

[[record]]
molecule = "COC(=O)C1=C(C)NC(C)=C(C(=O)OCCCN2CCC(c3ccccc3)(c3ccccc3)CC2)C1c1cccc([N+](=O)[O-])c1 (stereo unspecified)"
target_desc = "CP262"
discrete_label = "active"

[[record]]
molecule = "Cc1cc2cc3c(C)cc(=O)oc3c(C)c2o1"
target_desc = "CP262"
discrete_label = "inactive"

[[record]]
molecule = "O=C(NCCO[N+](=O)[O-])c1cccnc1"
target_desc = "CP262"
discrete_label = "inactive"

[[record]]
molecule = "O=C(OC1C[C@H]2CC[C@@H](C1)[N+]21CCCC1)C(O)(c1ccccc1)c1ccccc1 (stereo partly specified)"
target_desc = "CP262"
discrete_label = "active"

[[record]]
molecule = "CCc1nc(N)nc(N)c1-c1ccc(Cl)cc1"
target_desc = "CP262"
discrete_label = "inactive"

